- target or system: pY641-STAT6 in PBMC (Homo sapiens, UniProt P42226)
- Construct: Cryopreserved Peripheral Blood Mononuclear Cells (PBMC) are from AllCells; host or cells: cryopreserved PBMC
- Sequence (P42226 1-847): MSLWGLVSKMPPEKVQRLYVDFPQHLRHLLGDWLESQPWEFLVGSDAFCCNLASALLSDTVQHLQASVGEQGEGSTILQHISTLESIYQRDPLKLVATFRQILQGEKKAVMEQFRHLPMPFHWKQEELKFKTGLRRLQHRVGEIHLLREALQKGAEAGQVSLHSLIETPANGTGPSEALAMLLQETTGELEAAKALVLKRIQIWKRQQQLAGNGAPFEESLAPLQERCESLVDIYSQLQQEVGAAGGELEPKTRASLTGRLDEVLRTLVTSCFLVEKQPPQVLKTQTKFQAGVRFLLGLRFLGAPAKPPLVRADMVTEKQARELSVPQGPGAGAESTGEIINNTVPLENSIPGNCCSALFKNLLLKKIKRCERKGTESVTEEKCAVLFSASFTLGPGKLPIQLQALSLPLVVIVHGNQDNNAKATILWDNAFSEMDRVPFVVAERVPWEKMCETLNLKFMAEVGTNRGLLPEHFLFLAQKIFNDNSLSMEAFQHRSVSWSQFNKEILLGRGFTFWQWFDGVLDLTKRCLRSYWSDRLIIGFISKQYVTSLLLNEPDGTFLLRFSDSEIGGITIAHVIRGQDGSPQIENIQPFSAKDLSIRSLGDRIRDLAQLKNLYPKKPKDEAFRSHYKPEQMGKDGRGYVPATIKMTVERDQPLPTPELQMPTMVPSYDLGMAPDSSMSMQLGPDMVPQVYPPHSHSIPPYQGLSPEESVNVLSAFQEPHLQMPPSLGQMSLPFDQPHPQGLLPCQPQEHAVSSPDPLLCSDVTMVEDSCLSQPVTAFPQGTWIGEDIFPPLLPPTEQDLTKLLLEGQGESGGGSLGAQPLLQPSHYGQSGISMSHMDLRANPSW
- method: MSD-pSTAT-PBMC Assay (pSTAT6, IL-4 stimulated)
- Format: cell-based
- experimental conditions: STAT6, PBMC, compound 3 hrs, then 1 ng/mL IL-4 for 10 min; Table 115
pIC50: −log10 of the molar value.
I'd be grateful if you could share measured pIC50 for these entries.

Tell me the measured pIC50 of CCCOC(=O)[C@H](C)NP(=O)(Oc1ccccc1)C(F)(F)c1ccc2ccc(C(=O)N[C@H]3CCCC[C@H]4CC[C@@H](C(=O)N5CC(c6ccccc6)CC56CC6)N4C3=O)cc2c1 (stereo partly drawn) , please. 6.00 to 7.00

Tell me the measured pIC50 of CCCOC(=O)[C@H](C)NP(=O)(Cc1ccc2sc(C(=O)N[C@H]3CCC[C@H]4CC[C@@H](C(=O)N5C[C@@H](c6ccccc6)[C@H](C#N)C56CC6)N4C3=O)cc2c1)Oc1ccccc1 (stereo partly drawn) , please. > 7.00

Tell me the measured pIC50 of CCCOC(=O)[C@H](C)NP(=O)(Oc1ccccc1)[C@@H](F)c1ccc2sc(C(=O)N[C@H]3CCC[C@H]4CC[C@@H](C(=O)N5C[C@H](c6cccnc6)[C@@H](C#N)C56CC6)N4C3=O)cc2c1 (single isomer, unassigned) , please. > 7.00
